Listing: MIC of selected compounds
test system: Candida albicans; experiment: In vitro antifungal activity against […] (CA 34140); Not affected.; assay type: functional

• CCCOC(=O)N(O)[C@H]1C[C@@H]2CC[C@@H](C)[C@@](O)(O2)C(=O)C(=O)N2CCCC[C@H]2C(=O)O[C@H]([C@H](C)C[C@@H]2CC[C@@H](O)[C@H](OC)C2)CC(=O)[C@H](C)/C=C(\C)[C@@H](O)[C@@H](OC)C(=O)[C@H](C)C[C@H](C)/C=C/C=C/C=C/1C = ~100 µg/mL

stdin: Value lookup for MIC; key = "CO[C@@H]1C[C@H](C[C@@H](C)[C@@H]2CC(=O)[C@H](C)/C=C(\C)[C@@H](O)[C@@H](OC)C(=O)[C@H](C)C[C@H](C)/C=C/C=C/C=C(\C)[C@H](O)C[C@@H]3CC[C@@H](C)[C@@](O)(O3)C(=O)C(=O)N3CCCC[C@H]3C(=O)O2)CC[C@H]1O"
stdout: ~100 µg/mL

stdin: Value lookup for MIC; key = "CO[C@@H]1C[C@H](C[C@@H](C)[C@@H]2CC(=O)[C@H](C)/C=C(\C)[C@@H](O)[C@@H](OC)C(=O)[C@H](C)C[C@H](C)/C=C/C=C/C=C(\C)[C@H](N(O)C(=O)Oc3ccccc3)C[C@@H]3CC[C@@H](C)[C@@](O)(O3)C(=O)C(=O)N3CCCC[C@H]3C(=O)O2)CC[C@H]1O"
stdout: ~100 µg/mL
